biological target: human CD28 (human, UniProt P10747 19-220); assay: cell-based or functional assay
METRIC: Luciferase assay (EC50)

BINDER	Luciferase assay (EC50)
1h-18-3 (other) VL: DIQMTQSPSSLSASVGDRVTITCRASQYIGTSLNWYQQKPGKAPKLLTYRASLLQSGVPSRFSGSGSGTDFTLTISSLQPEDFATYYCQQLALRPMTFGQGTKVEIKR	1000 nM
1h-239 (other) VL: DIQMTQSPSSLSASVGDRVTITCRASQSIYPFLEWYQQKPGKAPKLLIYFTSRLQSGVPSRFSGSGSGTDFTLTISSLQPEDFATYYCQQNATNPATFGQGTKVEIKR	1300 nM
1h-239-824 (other) VL: DIQMTQSPSSLSASVGDRVTITCRASQSIYPFLEWYQQKPGKAPKLLIYFTSRLRQGVPSRFSGSGSGTDFTLTISSLQPEDFATYYCLQNVTNPATFSQGTKVEIKR	9 nM
1h-35 (other) VL: DIQMTQSPSSLSASVGDRVTITCRASQYIGSALSWYQQKPGKAPKLLIYRASNLQSGVPSRFSGSGSGTDFTLTISSLQPEDFATYYCQQLAIRPFTFGQGTKVEIKR	1900 nM
1h-38 (other) VL: DIQMTQSPSSLSASVGDRVTITCRASQPIGSVLAWYQQKPGKAPKLLIYFSSILQSGVPSRFSGSGSGTDFTLTISGLQPEDFATYYCQQALRSPFTFGQGTKVEIKR	650 nM
1h-100 (other) VH: EVQLLESGGGLVQPGGSLRLSCAASGFTFESYWMSWVRQAPGKGLEWVSTIADTGGLTYYADSVKGRFTISRDNSKNTLYLQMNSLRAEDTAVYYCAKVAYVLDDQPAFDYWGQGTLVTVSS	> 7000 nM
1h-82 (other) VL: DIQMTQSPSSLSASVGDRVTITCRASQDIGLNLLWYQQKPGKAPTLLIYWSSMLQSGVPSRFSGSGSGTDFTLTISSLQPEDFATYYCQQGRMRPFTFGQGTKVEIKR	1900 nM
1h-99-266 (other) VH: EVQLLESGGGLVQPGGSLRLSCAASGFTFYRSNMSWVRQAPGKGLEWVSWIEAPGVQTFYADSVRGRFTISRDNSKNTLYLQMNSLRAEDTAVYYCARSPFGPLYGFDYRGQGTLVTVSS	8 nM

Noted for 1h-99-265 (other) VH: EVQLLESGGGLVQPGGSLRLSCAASGFTFDKSNMSWARQAPGKGLEWVSWIEASGVQTFYADSVKGRFTISRDNSKNTLYLQMNSLRAEDTAVYYCAKSPFGPLYGFDYRGQGTLVTVSS : its Luciferase assay (EC50) reads 4 nM

# Luciferase assay (EC50) (binder: 1h-239-819 (other) VL: DIQMTQSPSSLSASVGDRVTITCRASQAIWPFLEWYQQKPGKAPKLLIYFTSRLQSGVPSRFSGSGSGTDFTLTISSLQPEDFATYYCLQNVTNPATFSQGTKVEIKR ) is 13 nM

Looking up 1h-99-250 (other) VH: EVQLLESGGGLVQPGGSLRLSCAASGFTFDSANMSWARQAPGKGLEWVSWIEATGGQTFYADSVKGRFTISRDNSKNTLYLQMNSLRAEDTAVYYCAKSPFGPLYGFDYRGQGTLVTVSS , I see its Luciferase assay (EC50) listed as 9 nM

// recorded Luciferase assay (EC50) for 1h-79-26 (other) VL: DIQMTQSPSSLSASVGDRVTITCRASQPIGHSLGWYQQKPGKAPKLLIYWASMLQSGVPSRFSGSGSGTDFTLTISSLQPEDFATYYCQQMLRTPFSFGQGTKVEIKR : 62 nM

Lab note: measured Luciferase assay (EC50) of 1h-85 (other) VL: DIQMTQSPSSLSASVGDRVTITCRASQPIGASLLWYQQKPGKAPRLLIYWGSLLQSGVPSRFSGSGSGTDFTLTISSLQPEDLATYYCQQSLRTPFTFGQGTKVEIKR was 530 nM

// Luciferase assay (EC50) value for 1h-36-6 (other) VL: DIQMTQSPSSLSASVGDRVTITCRASRDIALDLLWYQLKPGKAPKLLIKGWSGLQSGVPSRFSGSGSGTDFTLTISSLQPEDFATYFCAQGWGRPVTFGQGTKVEIKR : 162 nM

Given item 1h-239-8 (other) VL: DIQMTQSPSSLSASVGDRVTITCRASQSIYPFLEWYQQKPGKAPKLLIYFTSRLQSGVPSRFSGSGSGTDFTLTISSLQPEDFATYYCLQNVTNPATFSQGTKVEIKR , the value recorded as its Luciferase assay (EC50) is 10 nM

# Luciferase assay (EC50) (binder: 1h-80 (other) VL: DIQMTQSPSSLSASVGDRVTITCRASQRIGSNLAWYQQKPGKAPKLLIYWASLLQSGVPSRFSGSGSGTDFTLTISSLQPEDFATYYCQQTRSAPFTFGQGTKVEIKR ) is 685 nM

All values here come from patent US20130109846A1.
